Target: UniProt:O14842
Sequence (O14842 whole entry): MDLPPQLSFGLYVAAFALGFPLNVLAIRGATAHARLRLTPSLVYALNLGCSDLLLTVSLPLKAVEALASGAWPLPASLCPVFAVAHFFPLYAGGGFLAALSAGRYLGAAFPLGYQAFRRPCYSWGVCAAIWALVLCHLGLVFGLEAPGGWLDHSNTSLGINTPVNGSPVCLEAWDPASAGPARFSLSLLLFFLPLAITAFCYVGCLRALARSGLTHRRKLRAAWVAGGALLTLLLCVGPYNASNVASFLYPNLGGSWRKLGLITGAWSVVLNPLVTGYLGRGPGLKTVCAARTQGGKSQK
Test: Agonist activity at N-terminal FLAG tagged human FFAR1 transfected in African green monkey COS-7 cells assessed as accumulation of inositol phosphate incubated for 90 mins by TopCount NXT counter based analysis
EC50 strictly less than 1 µM = True. Otherwise False.

Q: Find out if reported EC50 for Cc1ccc(Nc2nc(N)nc(COc3cc(N4CCCC4=O)ccc3F)n2)cc1Cl is less than 1 µM
Result: False

Q: Field: below-cutoff. Rule: recorded EC50 strictly less than 1 µM. Subject: Cc1cc(=O)oc2cc(OCc3nc(N)nc(NCc4ccc(F)cc4)n3)ccc12
Result: False

Q: Take the compound Cc1c(Cl)cc(Nc2nc(N)nc(COc3ccc4c(C)cc(=O)oc4c3)n2)cc1Cl and say whether its EC50 is less than 1 µM.
Result: True

Q: Strictly below 1 µM in EC50? COc1ccc(Cl)cc1CCNc1nc(N)nc(COc2cc(C)cc(N3CCCC3=O)c2)n1
Result: True

Q: Problem: For the compound Cc1cc(=O)oc2cc(OCc3nc(N)nc(Nc4ccc5c(c4)COC5)n3)ccc12 , is EC50 under 1 µM?
Result: False

Q: Determine whether this compound shows EC50 lower than 1 µM (ties excluded): Cc1cc(OCc2nc(N)nc(NCCc3cccc(Cl)c3Cl)n2)cc(N2CCCC2=O)c1
Result: True

Q: Given the entry Cc1cc(=O)oc2cc(OCc3nc(N)nc(Nc4ccc(C5CC5)cc4)n3)ccc12 , would its reported EC50 be below 1 µM?
Result: True

Q: hey, is EC50 for Cc1cc(OCc2nc(N)nc(NCCc3cc(F)ccc3F)n2)cc(N2CCCC2=O)c1 lower than 1 µM or not?
Result: True

Q: For this compound, is EC50 lower than 1 µM? COc1ccc(OCc2nc(N)nc(Nc3ccc(C)c(Cl)c3)n2)cc1N1CCCC1=O
Result: False

Q: Find out if reported EC50 for Cc1ccc(Nc2nc(N)nc(COc3cccc(N4CCCCC4=O)c3)n2)cc1Cl is less than 1 µM
Result: False

Q: Answer whether the compound Cc1cc(OCc2nc(N)nc(NCC(c3c(F)cccc3F)N(C)C)n2)cc(N2CCCC2=O)c1 (configuration not stated) has EC50 strictly less than 1 µM
Result: False

Q: Decide: EC50 of COc1ccccc1CCNc1nc(N)nc(COc2cc(C)cc(N3CCCC3=O)c2)n1 strictly below 1 µM?
Result: True

---

Could you please report measured pEC50 for the items listed next?
Molecular target: Free fatty acid receptor 4 (Homo sapiens)
Sequence (Q5NUL3 whole entry): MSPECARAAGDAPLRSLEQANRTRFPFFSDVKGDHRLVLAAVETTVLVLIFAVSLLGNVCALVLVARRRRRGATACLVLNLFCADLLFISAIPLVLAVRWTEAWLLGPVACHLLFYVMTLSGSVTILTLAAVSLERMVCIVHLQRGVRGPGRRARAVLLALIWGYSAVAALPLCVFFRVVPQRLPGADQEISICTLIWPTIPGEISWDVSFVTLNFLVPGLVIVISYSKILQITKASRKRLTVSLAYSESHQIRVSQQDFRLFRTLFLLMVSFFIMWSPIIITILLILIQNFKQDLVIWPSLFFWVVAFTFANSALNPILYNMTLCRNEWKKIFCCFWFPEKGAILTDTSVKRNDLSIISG
Experiment: Agonist activity at N-terminal FLAG tagged human FFAR4 transfected in African green monkey COS-7 cells assessed as accumulation of inositol phosphate incubated for 90 mins by TopCount NXT counter based analysis
// pEC50: -log10(molar conc.)

Q: Which pEC50 value belongs to Cc1cc(OCc2nc(N)nc(NCCc3ccc(C)c(Cl)c3)n2)cc(N2CCCC2=O)c1 ?
Result: 8.10

Q: Item COc1ccc(CCNc2nc(N)nc(COc3cc(C)cc(N4CCCC4=O)c3)n2)cc1 has what recorded pEC50?
Result: 6.42

Q: // lookup pEC50 for Cc1ccc(Nc2nc(N)nc(COc3cc(C#N)cc(N4CCCC4=O)c3)n2)cc1Cl
Result: 4.84
